Tested on: P. falciparum 3D7 trophozoites
Method Notes: Metabolomic fingerprint profiling LC-MS
Format: cell-based, Plasmodium falciparum
Condition Info: metabolite level change after treatment
Recorded 6-phospho-D-gluconate split into classes low-valued = under -0.2, mid-valued = from -0.2 up to 0.1, high-valued = 0.1 and over

>  <Compound>
CC(C)(C)c1ccc(O)c(CNC2CCCCC2)c1

>  <Classification>
high-valued

$$$$
>  <Compound>
CCC(c1ccccc1)c1nn2c(-c3cccs3)nnc2s1 (centres unmarked)

>  <Classification>
high-valued

$$$$
>  <Compound>
CC1CN(C(=O)c2sc3ccccc3c2Cl)CC(C)O1 (centres unmarked)

>  <Classification>
mid-valued

$$$$
>  <Compound>
CN(C)c1ccc(C(O)(c2ccc(N(C)C)cc2)c2ccc(N(C)C)cc2)cc1

>  <Classification>
mid-valued

$$$$
>  <Compound>
COc1ccc(C=C2SC(=N)N(c3ccccc3OC)C2=O)cc1

>  <Classification>
high-valued

$$$$
>  <Compound>
COc1ccc(-c2nc(NC(=O)CS(=O)(=O)c3ccc(F)cc3)sc2C)cc1

>  <Classification>
low-valued

$$$$
>  <Compound>
CCCCCCOC(=O)C1=C(C)NC(=O)NC1c1ccccc1F (centres unmarked)

>  <Classification>
low-valued

$$$$
>  <Compound>
CSC1=NC(=Nc2c(C)cccc2C)C2(CCC(C(C)(C)C)CC2)N1c1ccc(Cl)cc1 (centres unmarked)

>  <Classification>
high-valued

$$$$
>  <Compound>
COc1ccc2c(=O)cc(C(Cl)(Cl)Cl)oc2c1

>  <Classification>
low-valued

$$$$
>  <Compound>
Oc1ccccc1CNCC12CC3CC(CC(C3)C1)C2

>  <Classification>
mid-valued

$$$$
>  <Compound>
CN1CCN(c2ccc(Nc3c4ccccc4nc4ccccc34)cc2)CC1

>  <Classification>
mid-valued

$$$$
>  <Compound>
OC(CNC1CCCCC1)Cn1c2ccccc2c2ccccc21 (centres unmarked)

>  <Classification>
high-valued

$$$$
>  <Compound>
Fc1ccc2[nH]c3c(NCCCN4CCOCC4)ncnc3c2c1

>  <Classification>
mid-valued

$$$$
>  <Compound>
CCN(CC)CCNc1ccnc2cc(Cl)ccc12

>  <Classification>
low-valued

$$$$

----------
Test system: P. falciparum 3D7 trophozoites
Method Notes: Metabolomic fingerprint profiling LC-MS
Assay type: cell-based, Plasmodium falciparum
Condition Info: metabolite level change after treatment

>  <Molecule>
O=C(CSc1nccn2nc(-c3ccccc3)cc12)Nc1cc(C(F)(F)F)ccc1Cl

>  <FMN>
-0.2869

$$$$
>  <Molecule>
Cc1cc(C=C2SC(=Nc3ccccc3)N(C3CCCC3)C2=O)c(C)n1-c1ccc(Cl)cc1

>  <FMN>
-0.1061

$$$$
>  <Molecule>
CC1CN(C(=O)c2sc3ccccc3c2Cl)CC(C)O1 (stereo not shown)

>  <FMN>
0.2041

$$$$
>  <Molecule>
CCN(CC)CCNc1ccnc2cc(Cl)ccc12

>  <FMN>
0.01066

$$$$

----------
Tested on: P. falciparum 3D7 trophozoites
Method Notes: Metabolomic fingerprint profiling LC-MS
Assay type: cell-based, Plasmodium falciparum
Condition Info: metabolite sarcosine/alanine; S2 Table Metabolomics, change in metabolite level after compound treatment
Measure Name: sarcosine/alanine

>  <Molecule>
Cc1ccc(-c2cc3nc4c(c(O)n3n2)CCCC4)cc1

>  <Measurement>
0.1551

$$$$
>  <Molecule>
Cc1cccc(Nc2nc(N)c3ccccc3n2)c1

>  <Measurement>
-0.6413

$$$$
>  <Molecule>
COc1ccc(NC(=O)C2c3ccccc3C(=O)N(CC(C)C)C2c2cccs2)cc1Cl (stereo not shown)

>  <Measurement>
-1.783

$$$$
>  <Molecule>
CC1CN(C(=O)c2sc3ccccc3c2Cl)CC(C)O1 (stereo not shown)

>  <Measurement>
0.3511

$$$$
>  <Molecule>
CC1CCN(Cc2ccc(NC(=O)c3cc4ccc5cccnc5c4[nH]3)cc2)CC1

>  <Measurement>
-0.25

$$$$
>  <Molecule>
Cc1ccc(Nc2nc(NCCO)c3ccccc3n2)cc1C

>  <Measurement>
-0.4284

$$$$
>  <Molecule>
Cc1cc(Nc2ccc(Cl)cc2)n2nc(C(F)(F)F)nc2n1

>  <Measurement>
0.2817

$$$$
>  <Molecule>
CNCCCNc1ccnc2cc(Cl)ccc12

>  <Measurement>
-0.5483

$$$$
>  <Molecule>
CN(C)CCCNc1c2ccccc2nc2ccccc12

>  <Measurement>
0.03174

$$$$
>  <Molecule>
CCc1ccc(Nc2cc(C)c3ccc(O)cc3n2)cc1

>  <Measurement>
-1.674

$$$$

----------
Entries and their EC50
System: P. falciparum Dd2
Method Notes: Malaria Sybr Green I Fluorescence assay Dd2 Horrocks
Assay type: cell-based
Condition Info: Plasmodium falciparum, DD2, 48 h; read-out: P. falciparum Dd2 asexual blood stage EC50 Horrocks

>  <Compound>
C[C@H]1[C@@H](O)O[C@@H]2O[C@@]3(C)CC[C@H]4[C@H](C)CC[C@@H]1[C@@]24OO3 [Dihydroartemisinin, reference compound]

>  <EC50>
4 nM

$$$$
>  <Compound>
C=C[C@H]1C[N@@]2CC[C@H]1C[C@H]2[C@H](O)c1ccnc2ccc(OC)cc12

>  <EC50>
246 nM

$$$$
>  <Compound>
CCOC(=O)c1cnc2ccc(OC)cc2c1NCc1ccccc1

>  <EC50>
4890 nM

$$$$
>  <Compound>
CCN1CCN(c2cc(C)c3cc(NC(=O)c4ccc(OC)c(OC)c4)ccc3n2)CC1

>  <EC50>
1850 nM

$$$$
>  <Compound>
CCN(CC)c1cc(C)c2cc(NC(=O)c3cccc(OC)c3)ccc2n1

>  <EC50>
2770 nM

$$$$

----------
Recorded 6-phospho-D-gluconate values for a group of compounds are listed next.
System: P. falciparum 3D7 trophozoites
Method Notes: Metabolomic fingerprint profiling LC-MS
Assay type: cell-based, Plasmodium falciparum
Condition Info: metabolite level change after treatment

>  <Compound>
COc1cccc(NC(=O)[C@H](C(C)C)n2c(=O)[nH]c3ccccc3c2=O)c1 [MMV665878]

>  <Measured Target>
P. falciparum 3D7 trophozoites

>  <6-phospho-D-gluconate>
-0.4297

$$$$
>  <Compound>
O=C(O)C1Cc2c([nH]c3ccccc23)C(c2ccc(Cl)cc2Cl)N1 (stereo not shown) [MMV008138]

>  <Measured Target>
P. falciparum 3D7 trophozoites

>  <6-phospho-D-gluconate>
0.4127

$$$$
>  <Compound>
Cc1cc(Nc2ccc3ccccc3c2)n2ncnc2n1 [MMV011099]

>  <Measured Target>
P. falciparum 3D7 trophozoites

>  <6-phospho-D-gluconate>
0.1135

$$$$
>  <Compound>
Cc1ccc(Nc2nc(-c3ccccn3)cs2)cc1 [MMV007907]

>  <Measured Target>
P. falciparum 3D7 trophozoites

>  <6-phospho-D-gluconate>
0.05128

$$$$
>  <Compound>
CCc1c(C)c(=N)c2ccccc2n1C [MMV006278]

>  <Measured Target>
P. falciparum 3D7 trophozoites

>  <6-phospho-D-gluconate>
-0.1749

$$$$
>  <Compound>
O=C(NCC(c1ccsc1)N1CCCCCC1)c1ccc(C(F)(F)F)cc1 (stereo not shown) [MMV396672]

>  <Measured Target>
P. falciparum 3D7 trophozoites

>  <6-phospho-D-gluconate>
-0.02288

$$$$
>  <Compound>
Cc1cc(C)c2c(c1)OCN(Cc1ccccc1Cl)C2 [MMV006558]

>  <Measured Target>
P. falciparum 3D7 trophozoites

>  <6-phospho-D-gluconate>
0.2839

$$$$
>  <Compound>
CCCN(CCC)CC(O)COc1ccccc1C(=O)Nc1ccccc1 (stereo not shown) [MMV006455]

>  <Measured Target>
P. falciparum 3D7 trophozoites

>  <6-phospho-D-gluconate>
0.458

$$$$
>  <Compound>
CSc1ccccc1C(=O)Nc1nc(-c2ccccn2)cs1 [MMV001246]

>  <Measured Target>
P. falciparum 3D7 trophozoites

>  <6-phospho-D-gluconate>
0.2643

$$$$
>  <Compound>
CNCCCNc1ccnc2cc(Cl)ccc12 [MMV020500]

>  <Measured Target>
P. falciparum 3D7 trophozoites

>  <6-phospho-D-gluconate>
0.1729

$$$$

----------
Tested on: P. falciparum 3D7 trophozoites
Method Notes: Metabolomic fingerprint profiling LC-MS
Format: cell-based, Plasmodium falciparum
Condition Info: metabolite citrate/isocitrate; S2 Table Metabolomics, change in metabolite level after compound treatment
We'd kindly ask you to apply these citrate/isocitrate classes: bucket 1: < -1; bucket 2: ≥ -1 and < -0.2; bucket 3: ≥ -0.2

>  <Compound>
Cc1ccc(-c2cc3c(SCC(=O)Nc4cc(C(F)(F)F)ccc4Cl)nccn3n2)cc1

>  <Classification>
bucket 2

$$$$
>  <Compound>
COc1cccc(NC(=O)[C@H](C(C)C)n2c(=O)[nH]c3ccccc3c2=O)c1

>  <Classification>
bucket 1

$$$$
>  <Compound>
CCn1c(CN2CCN(Cc3ccccc3)CC2)nc2cc(NC(=O)c3cccs3)ccc21

>  <Classification>
bucket 2

$$$$
>  <Compound>
CCOC(=O)C1=C(c2ccccc2)N=c2sc(=Cc3cc(C)n(-c4ccc(F)cc4)c3C)c(=O)n2C1c1cccc(OC)c1OC (stereo not drawn)

>  <Classification>
bucket 3

$$$$
>  <Compound>
Cc1ccc(-c2cc3c(nn2)-c2ccccc2C3=O)cc1

>  <Classification>
bucket 1

$$$$
>  <Compound>
Cc1cccc(Nc2nc(N)c3ccccc3n2)c1

>  <Classification>
bucket 2

$$$$
>  <Compound>
CCN(CC)CCNc1ncnc2c1[nH]c1ccc(Cl)cc12

>  <Classification>
bucket 3

$$$$
